Tested on: Pseudomonas aeruginosa
test protocol: Antibacterial activity against Pseudomonas aeruginosa 09-32 after 18 to 24 hrs by twofold serial dilution method
Format: functional
Criterion: MIC strictly less than 20 µg/mL. Met: true (1). Not met: false (0).

compound: CCn1cc(C(=O)O)c(=O)c2cc(F)c(N3C/C(=N\OC)C(/C(N)=N\OC)C3)c(F)c21 (configuration not stated)
cat: false (0)
//
compound: CCO/N=C1\CN(c2c(F)cc3c(=O)c(C(=O)O)cn(CC)c3c2F)CC1/C(N)=N\O (configuration not stated)
cat: false (0)
//
compound: CCO/N=C1\CN(c2c(F)cc3c(=O)c(C(=O)O)cn4c3c2OC[C@@H]4C)CC1/C(N)=N\OC (some centres not stated)
cat: false (0)
//
compound: CCO/N=C1\CN(c2c(F)cc3c(=O)c(C(=O)O)cn(CCF)c3c2F)CC1/C(N)=N\OC (configuration not stated)
cat: false (0)
//
compound: CCO/N=C1\CN(c2c(F)cc3c(=O)c(C(=O)O)cn(CC)c3c2F)CC1/C(N)=N\OCC (configuration not stated)
cat: false (0)
//
compound: CO/N=C1\CN(c2c(F)cc3c(=O)c(C(=O)O)cn(C4CC4)c3c2OC(F)F)CC1/C(N)=N\O (configuration not stated)
cat: false (0)
//
compound: CCO/N=C(/N)C1CN(c2c(F)cc3c(=O)c(C(=O)O)cn(CC)c3c2F)C/C1=N\OC (configuration not stated)
cat: false (0)
//
compound: CCO/N=C(/N)C1CN(c2nc3c(cc2F)c(=O)c(C(=O)O)cn3-c2ccc(F)cc2F)C/C1=N\OC (configuration not stated)
cat: false (0)
//
compound: CCO/N=C(/N)C1CN(c2nc3c(cc2F)c(=O)c(C(=O)O)cn3C2CC2)C/C1=N\OC (configuration not stated)
cat: false (0)
//
compound: CCO/N=C1\CN(c2nc3c(cc2F)c(=O)c(C(=O)O)cn3C2CC2)CC1/C(N)=N\O (configuration not stated)
cat: false (0)
//
compound: CCO/N=C1\CN(c2c(F)cc3c(=O)c(C(=O)O)cn4c3c2OC[C@@H]4C)CC1/C(N)=N\O (some centres not stated)
cat: false (0)
//
compound: CCO/N=C1\CN(c2c(F)cc3c(=O)c(C(=O)O)cn(C4CC4)c3c2F)CC1/C(N)=N\OC (configuration not stated)
cat: true (1)
//
compound: CCO/N=C(/N)C1CN(c2c(F)cc3c(=O)c(C(=O)O)cn(C4CC4)c3c2OC)C/C1=N\OC (configuration not stated)
cat: false (0)
//
compound: CCO/N=C1\CN(c2c(F)cc3c(=O)c(C(=O)O)cn(C4CC4)c3c2OC(F)F)CC1/C(N)=N\OCC (configuration not stated)
cat: false (0)
//
compound: CO/N=C1\CN(c2c(F)cc3c(=O)c(C(=O)O)cn(C4CC4)c3c2F)CC1/C(N)=N\OC (configuration not stated)
cat: true (1)
//
compound: CO/N=C1\CN(c2nc3c(cc2F)c(=O)c(C(=O)O)cn3C2CC2)CC1CN (configuration not stated)
cat: true (1)
//
compound: C[C@H]1COc2c(N3CCN(C)CC3)c(F)cc3c(=O)c(C(=O)O)cn1c23.C[C@H]1COc2c(N3CCN(C)CC3)c(F)cc3c(=O)c(C(=O)O)cn1c23.O
cat: true (1)
//
compound: CCO/N=C1\CN(c2nc3c(cc2F)c(=O)c(C(=O)O)cn3C2CC2)CC1/C(N)=N\OCC (configuration not stated)
cat: false (0)
//
compound: CCO/N=C1\CN(c2c(F)cc3c(=O)c(C(=O)O)cn4c3c2OC[C@@H]4C)CC1/C(N)=N\OCC (some centres not stated)
cat: false (0)
//
compound: CO/N=C1\CN(c2c(F)cc3c(=O)c(C(=O)O)cn(C4CC4)c3c2OC)CC1/C(N)=N\OC (configuration not stated)
cat: false (0)
//
compound: CO/N=C1\CN(c2c(F)cc3c(=O)c(C(=O)O)cn4c3c2OC[C@@H]4C)CC1/C(N)=N\OC (some centres not stated)
cat: true (1)
//
compound: CCO/N=C1\CN(c2c(F)cc3c(=O)c(C(=O)O)cn(CCF)c3c2F)CC1/C(N)=N\O (configuration not stated)
cat: true (1)
